test: Microsomal stability, human; assay type: in vitro ADME; details: human liver microsomes, 3 μM compound, 37° C.
Kindly state Microsomal stability Human (%), compound remaining after 60 minutes for each of the entries shown.
# do not omit the unit; it follows the number

Some solved cases for reference:
>>> val("NC(=O)c1ccc(COc2ccc(-c3cccc4nc(NC(=O)C5CC5)nn34)cc2)cn1 [Compound 192]")
"127.2%"
>>> val("O=C(Nc1nc2cccc(-c3ccc(OCc4ccc(Cl)nc4)cc3)n2n1)C1CC1 [Compound 198]")
"65.8%"
>>> val("O=C(Nc1nc2cccc(-c3ccc(OCc4ccccn4)cc3)n2n1)C1CC1 [Compound 37]")
"70.98%"
>>> val("CC(=O)Nc1ccc(COc2ccc(-c3cccc4nc(NC(=O)C5CC5)nn34)cc2)cc1 [Compound 92]")
"30.21%"
>>> val("COC(=O)c1ccc(COc2ccc(-c3cccc4nc(NC(=O)C5CC5)nn34)cc2)nc1 [Compound 190]")
"2.13%"
>>> val("O=C(Nc1nc2cccc(-c3ccc(NCc4cccnc4)cc3)n2n1)C1CC1 [Compound 182]")
"19.33%"
>>> val("N#Cc1ccc(COc2ccc(-c3cccc4nc(NC(=O)C5CC5)nn34)cc2)cn1 [Compound 176]")
"157.1%"

The record that follows has no Microsomal stability Human (%), compound remaining after 60 minutes shown yet.
(Q) Returns the measured Microsomal stability Human (%), compound remaining after 60 minutes for the input compound. Input: Cc1ccc(COc2ccc(-c3cccc4nc(NC(=O)C5CC5)nn34)cc2)cn1 [Compound 197]
(A) 46.6%

* * *

target: Recombinant human JAK1 catalytic domain (Homo sapiens); construct: Recombinant human JAK1 catalytic domain (amino acids 850-1154; catalog number 08-144); assay: JAK1 inhibition assay; settings: semi-quantitative score
Sequence (P23458 850-1154): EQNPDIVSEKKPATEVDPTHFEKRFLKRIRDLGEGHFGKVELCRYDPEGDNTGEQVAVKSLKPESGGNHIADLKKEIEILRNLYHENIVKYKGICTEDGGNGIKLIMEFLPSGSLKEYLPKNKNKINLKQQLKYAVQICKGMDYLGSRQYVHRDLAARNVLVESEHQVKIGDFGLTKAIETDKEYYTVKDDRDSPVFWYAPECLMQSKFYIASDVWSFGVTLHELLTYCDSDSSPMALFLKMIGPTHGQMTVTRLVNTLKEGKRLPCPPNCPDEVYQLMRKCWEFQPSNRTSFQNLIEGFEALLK
VALUE_TYPE: IC50

>>> val("O=C(Nc1nc2cccc(-c3ccc(OCc4ccccc4)c(F)c3)n2n1)C1CC1")
"0.1 to 100 nM"

# batch: return IC50 for each of the 6 compounds below
1. NC(=O)c1ccc(COc2ccc(-c3cccc4nc(NC(=O)C5CC5)nn34)cc2)cn1
2. COC(=O)c1ccc(COc2ccc(-c3cccc4nc(NC(=O)C5CC5)nn34)cc2)nc1
3. O=C(Nc1nc2cccc(-c3ccc(NCc4cccnc4)cc3)n2n1)C1CC1
4. O=C(Nc1nc2cccc(-c3ccc(OCc4ccc(N5CCCC5)nc4)cc3)n2n1)C1CC1
5. Cc1ccc(COc2ccc(-c3cccc4nc(NC(=O)C5CC5)nn34)cc2)cn1
6. O=C(Nc1nc2cccc(-c3ccc(NCc4ccccc4)cc3)n2n1)C1CC1

(A)
["0.1 to 100 nM", "0.1 to 100 nM", "0.1 to 100 nM", "> 501 nM", "0.1 to 100 nM", "0.1 to 100 nM"]

(Q) Returns the measured IC50 for the input compound. Input: O=C(Nc1nc2cccc(-c3ccc(OCc4cccnc4)cc3)n2n1)C1CC1
(A) 0.1 to 100 nM

* * *

assay: Microsomal stability, human; assay type: in vitro ADME; conditions: human liver microsomes, 3 μM compound, 37° C.
VALUE_TYPE: Microsomal stability Human (%), compound remaining after 60 minutes
Give bare numbers, in %.

Some solved cases for reference:
>>> val("O=C(Nc1nc2cccc(-c3ccc(OCc4ccccc4)cc3)n2n1)C1CC1")
70
>>> val("O=C(Nc1nc2cccc(-c3ccc(OCc4ccccc4)nc3)n2n1)C1CC1")
42.75
>>> val("O=C(Nc1nc2cccc(-c3ccc(OCc4ccc(C(F)(F)F)nc4)cc3)n2n1)C1CC1")
78.21

# batch: return Microsomal stability Human (%), compound remaining after 60 minutes for each of the 4 molecules below
1. O=C(Nc1nc2cccc(-c3ccc(OCc4ccccc4)c(F)c3)n2n1)C1CC1
2. CC(=O)Nc1nc2cccc(-c3ccc(OCc4ccccc4)cc3)n2n1
3. O=C(Nc1nc2cccc(-c3ccc(NCc4ccccc4)cc3)n2n1)C1CC1
4. O=C(Nc1nc2cccc(-c3ccc(OCc4cccnc4)cc3)n2n1)C1CC1

(A)
1. 43
2. 53.64
3. 4.88
4. 11.65

* * *

molecular target: Recombinant human TYK2 catalytic domain (Homo sapiens, UniProt P29597); construct: Recombinant human TYK2 catalytic domain (amino acids 871-1187; catalog number 08-147); experiment: TYK2 inhibition assay; conditions: semi-quantitative score
Sequence (P29597 871-1187): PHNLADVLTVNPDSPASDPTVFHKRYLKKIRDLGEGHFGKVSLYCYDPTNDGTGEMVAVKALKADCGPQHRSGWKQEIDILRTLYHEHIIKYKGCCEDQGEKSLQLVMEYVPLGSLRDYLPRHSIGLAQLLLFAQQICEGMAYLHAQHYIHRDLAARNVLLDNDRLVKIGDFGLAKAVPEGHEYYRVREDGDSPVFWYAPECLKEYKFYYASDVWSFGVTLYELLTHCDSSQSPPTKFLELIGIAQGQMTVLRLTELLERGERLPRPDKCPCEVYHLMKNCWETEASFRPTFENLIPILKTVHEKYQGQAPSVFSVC
pIC50: −log10 of the molar value.
VALUE_TYPE: pIC50

Some solved cases for reference:
>>> val("O=C(Nc1nc2cccc(-c3ccc(OCc4cccnc4)cc3)n2n1)C1CC1 [Compound 36]")
"6.30 to 7.00"
>>> val("CC(=O)Nc1ccc(COc2ccc(-c3cccc4nc(NC(=O)C5CC5)nn34)cc2)cc1 [Compound 92]")
"< 6.00"
>>> val("N#Cc1ccc(COc2ccc(-c3cccc4nc(NC(=O)C5CC5)nn34)cc2)cn1 [Compound 176]")
"7.00 to 9.00"
>>> val("O=C(Nc1nc2cccc(-c3ccc(OCc4ccccn4)cc3)n2n1)C1CC1 [Compound 37]")
"6.00 to 6.30"

(Q) Recombinant human TYK2 catalytic domain (Homo sapiens, UniProt P29597) / pIC50 / O=C(Nc1nc2cccc(-c3ccc(NCc4ccccc4)cc3)n2n1)C1CC1 [Compound 72] : value?
(A) < 6.00

* * *

assay: Caco2 permeability, bi-directional; type: in vitro ADME; details: human, Caco-2; 10 μM, 1 hour, pH 7.4
Kindly state Papp A→B at 1 h, 10 μM for each of the entries shown.
Give bare numbers, in nm/s.

>>> val("O=C(Nc1nc2cccc(-c3ccc(OCc4ccc(C(F)(F)F)nc4)cc3)n2n1)C1CC1")
20

# batch: return Papp A→B at 1 h, 10 μM for each of the 4 compounds below
1. O=C(Nc1nc2cccc(-c3ccc(NCc4ccccc4)cc3)n2n1)C1CC1
2. NC(=O)c1ccc(COc2ccc(-c3cccc4nc(NC(=O)C5CC5)nn34)cc2)cn1
3. O=C(Nc1nc2cccc(-c3ccc(OCc4ccccn4)cc3)n2n1)C1CC1
4. CC(=O)Nc1nc2cccc(-c3ccc(OCc4ccccc4)cc3)n2n1

(A)
1: 149; 2: 125; 3: 230; 4: 134

# batch: return Papp A→B at 1 h, 10 μM for each of the 3 compounds below
1. O=C(Nc1nc2cccc(-c3ccc(OCc4ccccc4)c(F)c3)n2n1)C1CC1
2. N#Cc1ccc(COc2ccc(-c3cccc4nc(NC(=O)C5CC5)nn34)cc2)cn1
3. O=C(Nc1nc2cccc(-c3ccc(OCc4cccnc4)cc3)n2n1)C1CC1

(A)
258
106
366

* * *

assay: Microsomal stability, rat; format: in vitro ADME; conditions: rat liver microsomes, 3 μM compound, 37° C.
Kindly state Microsomal stability Rat (%), compound remaining after 60 minutes for each of the entries shown.
One number for each entry, in %.

Some solved cases for reference:
>>> val("O=C(Nc1nc2cccc(-c3ccc(OCc4ccccc4)c(F)c3)n2n1)C1CC1")
14
>>> val("O=C(Nc1nc2cccc(-c3ccc(OCc4ccc(Cl)nc4)cc3)n2n1)C1CC1")
72.45
>>> val("O=C(Nc1nc2cccc(-c3ccc(OCc4ccc(C(F)(F)F)nc4)cc3)n2n1)C1CC1")
93.85

# batch: return Microsomal stability Rat (%), compound remaining after 60 minutes for each of the 4 molecules below
1. NC(=O)c1ccc(COc2ccc(-c3cccc4nc(NC(=O)C5CC5)nn34)cc2)cn1
2. CC(=O)Nc1ccc(COc2ccc(-c3cccc4nc(NC(=O)C5CC5)nn34)cc2)cc1
3. O=C(Nc1nc2cccc(-c3ccc(NCc4ccccc4)cc3)n2n1)C1CC1
4. O=C(Nc1nc2cccc(-c3ccc(OCc4cccnc4)cc3)n2n1)C1CC1

(A)
1: 77.62; 2: 23.6; 3: 2.2; 4: 72.41

* * *

Molecular target: Recombinant human JAK3 catalytic domain (Homo sapiens, UniProt P52333)
Construct: Recombinant human JAK3 catalytic domain (amino acids 781-1124; catalog number PV3855)
Sequence (P52333 781-1124): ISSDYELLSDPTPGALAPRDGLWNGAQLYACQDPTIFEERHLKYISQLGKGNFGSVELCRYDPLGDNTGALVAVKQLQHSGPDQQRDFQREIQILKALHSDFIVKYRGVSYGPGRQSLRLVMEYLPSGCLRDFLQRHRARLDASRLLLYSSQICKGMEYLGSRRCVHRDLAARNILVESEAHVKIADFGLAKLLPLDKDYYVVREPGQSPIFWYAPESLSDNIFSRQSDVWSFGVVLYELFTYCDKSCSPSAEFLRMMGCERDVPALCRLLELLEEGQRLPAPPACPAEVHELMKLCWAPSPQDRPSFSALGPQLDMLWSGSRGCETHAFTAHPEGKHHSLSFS
Assay: JAK3 inhibition assay
Settings: semi-quantitative score
Procedure: Recombinant human JAK3 catalytic domain (amino acids 781-1124; catalog number PV3855) was purchased from Invitrogen. […] 40 μL/well of Microscint-20 was added, the top of the plates was sealed and readout was performed using the Topcount (Perkin Elmer). Kinase activity was calculated by subtracting counts per minute (cpm) obtained in the presence of a positive control inhibitor (10 μM staurosporine) from cpm obtained in the presence of vehicle. […]
VALUE_TYPE: IC50

# batch: return IC50 for each of the 4 molecules below
1. N#Cc1ccc(COc2ccc(-c3cccc4nc(NC(=O)C5CC5)nn34)cc2)cn1
2. O=C(Nc1nc2cccc(-c3ccc(OCc4cccnc4)cc3)n2n1)C1CC1
3. O=C(Nc1nc2cccc(-c3ccc(OCc4ccccc4)nc3)n2n1)C1CC1
4. O=C(Nc1nc2cccc(-c3ccc(NCc4ccccc4)cc3)n2n1)C1CC1

(A)
1 to 100 nM
101 to 500 nM
> 501 nM
> 501 nM

(Q) Recombinant human JAK3 catalytic domain (Homo sapiens, UniProt P52333) / IC50 / O=C(Nc1nc2cccc(-c3ccc(OCc4ccccc4)cc3)n2n1)C1CC1 : value?
(A) 1 to 100 nM
